STUDY SYSTEM: Peroxisome proliferator-activated receptor gamma (Homo sapiens)
TEST METHOD NOTES: Transactivation of recombinant human N-terminal GAL4-DBD fused PPARgamma LBD expressed in reporter cells at 30 uM measured after 24 hrs by luciferase reporter gene assay relative to control
Type: cell-based
REPORTED METRIC: fold change (FC)

MOLECULE	fold change (FC)
O=C1NC(=O)C(Cc2ccc(OCCn3ccc4ccccc43)cc2)S1 (stereo not given)	56.1

[1] CN(CCOc1ccc(CC2SC(=O)NC2=O)cc1)c1ccccn1 (stereo not given)
[2] O=C1NC(=O)C(Cc2ccc(OCCOC(c3ccccc3)c3ccccc3)cc2)S1 (stereo not given)
[3] O=C1NC(=O)C(Cc2ccc(OCCn3cnc4ccccc43)cc2)S1 (stereo not given)
Prompt: I would appreciate it if you could sort these 3 molecules by fold change (FC), starting from the smallest number. Use the labels to give the requested order.
Completion: 2, 3, 1
(2: 4, 3: 29.7, 1: 43.1)

* * *

STUDY SYSTEM: Peroxisome proliferator-activated receptor gamma (Homo sapiens) (UniProt P37231)
Sequence (whole entry): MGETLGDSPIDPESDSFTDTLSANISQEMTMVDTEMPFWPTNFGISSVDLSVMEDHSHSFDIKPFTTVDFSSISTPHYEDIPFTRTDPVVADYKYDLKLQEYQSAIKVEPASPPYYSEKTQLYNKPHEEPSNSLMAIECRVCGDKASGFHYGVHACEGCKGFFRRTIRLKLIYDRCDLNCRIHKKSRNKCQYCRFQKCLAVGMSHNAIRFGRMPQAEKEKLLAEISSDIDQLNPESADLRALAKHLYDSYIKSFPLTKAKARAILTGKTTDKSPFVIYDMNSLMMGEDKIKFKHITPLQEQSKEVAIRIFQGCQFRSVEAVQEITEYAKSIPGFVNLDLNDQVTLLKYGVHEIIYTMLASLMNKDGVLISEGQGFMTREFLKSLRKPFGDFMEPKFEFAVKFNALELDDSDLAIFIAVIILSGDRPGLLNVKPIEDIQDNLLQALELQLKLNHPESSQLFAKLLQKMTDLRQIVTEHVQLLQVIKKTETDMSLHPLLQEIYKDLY
TEST METHOD NOTES: Transactivation of recombinant human N-terminal GAL4-DBD fused PPARgamma LBD expressed in reporter cells at 30 uM measured after 24 hrs by luciferase reporter gene assay relative to rosiglitazone
Type: cell-based
Activity for assorted compounds

Check out these entries, answers already filled in.
COMPOUND	STUDY SYSTEM	VALUE MEASURED
O=C1NC(=O)C(Cc2ccc(OCCn3c(-c4ccccc4)cc4ccccc43)cc2)S1 (stereo unspecified)	Peroxisome proliferator-activated receptor gamma (Homo sapiens) (UniProt P37231)	34.9%
O=C1NC(=O)C(Cc2ccc(OCCn3ccc4ccc(Cl)cc43)cc2)S1 (stereo unspecified)	Peroxisome proliferator-activated receptor gamma (Homo sapiens) (UniProt P37231)	83.7%
O=C1NC(=O)C(Cc2ccc(OCCOC(c3ccccc3)c3ccccc3)cc2)S1 (stereo unspecified)	Peroxisome proliferator-activated receptor gamma (Homo sapiens) (UniProt P37231)	9.3%
O=C1NC(=O)C(Cc2ccc(OCCn3ccc4ccccc43)cc2)S1 (stereo unspecified)	Peroxisome proliferator-activated receptor gamma (Homo sapiens) (UniProt P37231)	130%
O=C1NC(=O)C(Cc2ccc(OCCOC(c3ccccc3)c3ccc(Cl)cc3)cc2)S1 (stereo unspecified)	Peroxisome proliferator-activated receptor gamma (Homo sapiens) (UniProt P37231)	10.7%

Prompt: Specify reported Activity for the compound shown: Cc1ccccc1C(OCCOc1ccc(CC2SC(=O)NC2=O)cc1)c1ccccc1 (stereo unspecified)
Completion: 4.4%

Prompt: Report measured Activity; entry is O=C1NC(=O)C(Cc2ccc(OCCn3c(CO)nc4ccccc43)cc2)S1 (stereo unspecified)
Completion: 39.5%

Prompt: Report Activity for COc1ccc(C(OCCOc2ccc(CC3SC(=O)NC3=O)cc2)c2ccccc2)cc1 (stereo unspecified)
Completion: 12.1%

Prompt: Assign Activity to the following record: O=C1NC(=O)C(Cc2ccc(OCCOc3cccc4ccccc34)cc2)S1 (stereo unspecified)
Completion: 13.3%

Prompt: Using known records, supply Activity for O=C1NC(=O)C(Cc2ccc(OCCn3cnc4ccccc43)cc2)S1 (stereo unspecified)
Completion: 69.8%

Origin of the recorded values: ChEMBL document CHEMBL4118117
